B1: Membrane-associated guanylate kinase, WW and PDZ domain-containing protein 1, residues 352 to 401; numbered along this chain, Q96QZ7 (parent)
chain: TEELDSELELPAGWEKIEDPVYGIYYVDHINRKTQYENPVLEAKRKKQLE

# Variants of: B1
# ASSAY: abundance fitness (aPCA) (normalised: wild type 0, dead -1); higher = more abundant; growth selection in yeast, the domain comes from the species named
# STUDY_CONDITIONS: Homo sapiens
Catalogue of abundance fitness readings, one per entry.
Respond with the number and no other words.

Take a look at these entries with their results.
| MUT | abundance fitness |
| --- | --- |
| T1G | -0.118 |
| V40N | -0.038 |
| K44I | -0.438 |

Request: Fill blank: measured abundance fitness of the variant K46G is ____.
Result: -0.089

Request: And what about the variant H29C ?
Result: -0.502

Request: // next record K44A
Result: -0.079

Request: Then E42Y ?
Result: -0.366

Request: Try this variant too: E2Y
Result: -0.403

Request: R32D ?
Result: 0.067

Request: Can you handle E42V next?
Result: -0.149

Request: Here is the next variant: G23E
Result: -0.801

Values compiled from the Human Domainome abundance scans (Beltran et al. 2025).
